All values here come from PubChem BioAssay AID1159580.

- ASSAY SUMMARY: chemical genetic growth profiling, strain panel (AID 1159580);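 also: tested at 20 µM; growth read once vehicle control cultures reached saturation at 30 °C; lower values mean less growth of the strain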
- REPORTED CONDITIONS: S. cerevisiae deletion strains, growth OD, locus YJL129C, strain trk1
Among all 5,500 compounds or so, about 2,000 (36%) were called active. Roughly 18% stayed inconclusive and do not appear here. Rule as the data show it: active = normalized growth mostly below about 0.91 (no sharp cut-off); inconclusive = no clear call, values can overlap the other calls; inactive = mostly above about 0.92. This is one part of the list.
Reply using exactly one outcome from active, inactive

{"columns": ["MOLECULE", "CATEGORY LABEL"],
 "data": [
  ["C=CCSCC1Nc2cc(Cl)c(S(N)(=O)=O)cc2S(=O)(=O)N1 (stereo not drawn)", "inactive"],
  ["C=CC(N)CCC(=O)O (stereo not drawn)", "inactive"]
]}

Consider the additional molecule presented here.
Ask | Given CC1=CC2C(CC1=O)C(C)=CCC2C(C)C (stereo not drawn) , state the outcome it received in this test.
Reply | inactive
